Target: MMP-7 (Homo sapiens (Human), UniProt P09237)
Sequence (P09237 95-267): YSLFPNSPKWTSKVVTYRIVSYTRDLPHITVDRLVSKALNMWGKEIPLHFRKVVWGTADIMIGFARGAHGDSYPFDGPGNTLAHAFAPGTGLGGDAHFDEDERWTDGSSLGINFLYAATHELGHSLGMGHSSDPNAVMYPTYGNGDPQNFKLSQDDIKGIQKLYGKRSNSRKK
Assay: MMP-7 inhibition assay (fluorogenic peptide substrate)
Settings: recombinant MMP-7 8.3 nM, Mca-PLGL-Dpa-AR-NH2 10 μM, 4 hours at room temperature; tested at 1, 10, 100 and 200 μM
Where a SMILES comes first, the peptide text is derived from it. [ ]: non-standard residue; d: D form. The star is where a group is joined. ξ: configuration not given here. Benzoyl(3,5-F2) = O=C(c1cc(F)cc(F)c1)*; NMeIle(3ξ) = CCC(C)[C@H](NC)C(=O)O; NMeA = CN[C@@H](C)C(=O)O; Dab = NCC[C@H](N)C(=O)O; NHOH = ON*
RECORDED ENDPOINT: IC50 (µM)
Give the quantity in µM, number only.

(Q) Field request: IC50 | item: CCC(C)[C@@H](C(=O)N[C@@H](CCNC(=O)c1cc(F)cc(F)c1)C(=O)NO)N(C)C(=O)[C@@H]1CCCN1C(=O)[C@H](C)N(C)C(C)=O (some centres unmarked) [Example 12] (Ac-[NMeA]P[NMeIle(3ξ)][Dab](Benzoyl(3,5-F2))-{NHOH})
(A) 14.1
